// data source = patent US20240067748A1

Attribute: Kd
assay-system: T1, monkey Trop2 protein (Sino Biological, #90893-C08H) (monkey, UniProt A0A2K5UE71 27-274)
T1 construct: bought protein; also called monkey Trop2 protein antigen (His tag)
T1 sequence: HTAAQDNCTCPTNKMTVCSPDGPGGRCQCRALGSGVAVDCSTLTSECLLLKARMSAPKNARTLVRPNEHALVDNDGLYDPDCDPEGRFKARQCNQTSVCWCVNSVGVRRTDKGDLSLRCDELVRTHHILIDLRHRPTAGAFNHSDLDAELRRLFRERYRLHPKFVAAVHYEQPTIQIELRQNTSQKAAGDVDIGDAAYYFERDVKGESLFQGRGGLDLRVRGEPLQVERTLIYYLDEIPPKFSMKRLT
assay-method-text: BLI, Octet RED96, AHC sensor
observed-property: Kd (nM)

>>> assay_result("PR001154 (antibody, human IgG1, kappa, V domains shown, fully human IgG1/kappa; also called antibody No. (17)) VH: QVQLVESGGGVVQPGRSLRLSCEASGFTFSHYGMHWVRQAPGKGLEWVAVIWYDGIKKYYIESVKGRFIISRDNSKNTLYLQMNRLRAEDTAVYYCARDGGFGELNYYGLDVWGQGTTVTVSS VL: DIQLTQSPSFLSASVGDRVTITCRASQGISSYLGWYQQKPGKAPKLLIYVASTLQSGVPSRFSGSGSGTEFTLTISSLQPEDFATYYCQQLNSYPYTFGQGTKLEIKR")
1.91
>>> assay_result("PR001163 (antibody, human IgG1, kappa, V domains shown, fully human IgG1/kappa; also called antibody No. (24)) VH: QVQLVESGGDVVQPGRSLRLSCEASGFTFSHYGMHWVRQAPGKGLEWVAVVWYDGIKKYYVESVKGRFTISRDNSKNTLYLQMNRLRAEDTAVYYCARDGGFGELNYYGLDVWGQGTTVTVSS VL: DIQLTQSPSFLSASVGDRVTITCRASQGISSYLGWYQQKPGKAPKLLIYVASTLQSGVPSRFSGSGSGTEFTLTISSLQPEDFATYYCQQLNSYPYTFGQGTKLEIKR")
1.96
